Protocol: qHTS Assay for Lipid Storage Modulators in Drosophila S3 Cells;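 also: cells counted by Cell Tracker Red CMTPX staining in the red channel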
Particulars: BODIPY lipid droplet fluorescence, 18-24 h, cells fed with added oleic acid; measured here: cell count max response
Among all 320,000 compounds or so, about 2,100 (0.66%) were called active. About 53% were inconclusive and are not listed. For the sample, actives were picked, then their nearest neighbours and some compounds at random.
Field: cell number change. Provide a value for each of the molecules that follow.
One number for each entry, in %.

Previously resolved entries follow.
- Molecule: "CCNC(=S)NS(=O)(=O)c1ccc(CC)cc1"
  Unit descriptor: "%"
  cell number change: -7.16
- Molecule: "O=C1[C@@H]2Cc3c([nH]c4ccccc34)C(c3ccccc3)N2C(=O)CN1C1CC1 (some centres not stated)"
  Unit descriptor: "%"
  cell number change: -19.8
- Molecule: "CCOC(=O)Cn1c(=N)n(Cc2ccccc2F)c2ccccc21"
  Unit descriptor: "%"
  cell number change: -1.47

Give cell number change for all molecules that follow.
1. COc1ccc(C2(c3ccc(OC)cc3)NC(=O)N(CC(=O)N3CCOCC3)C2=O)cc1
2. COC(=O)CCN(C(=O)c1ccc(C)c([N+](=O)[O-])c1)c1ccccn1
3. COc1ccc(/C=C/c2c([N+](=O)[O-])c(=O)n(C)c(=O)n2C)cc1OC
4. COCCCN(C(=O)c1ccccc1)c1nc(-c2ccc(OC)cc2)cs1
5. CCOC(=O)C1=C(C)NC2=C(C(=O)c3ccccc32)C1c1cccc2ccccc12 (configuration not stated)
6. CCCn1c(=N)n(CC(O)c2ccco2)c2ccccc21 (configuration not stated)

result:
1: 8.58; 2: 16.9; 3: -10.8; 4: 5.82; 5: -15.2; 6: 16.8

Give cell number change for all molecules that follow.
1. Cc1ccccc1-c1nc2sc3c(c2c(=O)o1)CCC3
2. O=C(CCN1C(=O)/C(=C\c2ccccc2)SC1=S)N1CCCCC1
3. CCOC(=O)c1[nH]c(C)c(C(=O)OCCN2C(=O)c3ccccc3C2=O)c1C

result:
[4.59, 9.57, -20.4]

Give cell number change for all molecules that follow.
1. COc1cccc(/C=C2\SC(=S)N(CCC(=O)N3CCCCC3CCO)C2=O)c1 (configuration not stated)
2. O=C(O)CCCCCN1C(=O)/C(=C/c2ccncc2)SC1=S
3. CC(=O)c1ccc(NC(=O)Nc2ccc(S(=O)(=O)N3CCCC3)cc2)cc1
4. O=S(=O)(c1ccc(Cl)cc1)c1cnc2ccccc2n1

result:
[-19.7, 8.67, -4.34, -118]

Give cell number change for all molecules that follow.
1. COc1ccc(C(=O)Nc2ccc(S(=O)(=O)N3CCCC3)cc2)c(OC)c1
2. CCCn1c(=N)n(CC(=O)OCC)c2ccccc21
3. N=c1n(CCN2CCCCC2)c2ccccc2n1CC(O)c1ccco1 (configuration not stated)
4. COCCN(C(=O)c1ccccc1)c1nc(-c2ccc(OC)cc2)cs1
5. CCN(CC)CC(=O)Nc1cccc2c1C(=O)c1ccccc1C2=O

result:
1. 7.48
2. 13.2
3. 15.8
4. -13.2
5. 7.09

* * *

Protocol: qHTS Assay for Lipid Storage Modulators in Drosophila S3 Cells;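 also: cells counted by Cell Tracker Red CMTPX staining in the red channel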
Particulars: BODIPY lipid droplet fluorescence, 18-24 h, cells fed with added oleic acid; measured here: cell count max response
The campaign covered roughly 320,000 compounds. About 2,100 (0.66%) were called active. Another 53% or so got no clear call; they are omitted. This is one part of a sample in which actives are shown more often than they occur.
One threshold, 10%, splits the recorded cell number change values: lower ones are T, equal or higher ones are F.

- Molecule: "O=C1CSC(c2ccccc2)N1CC(O)c1ccc([N+](=O)[O-])cc1 (stereo not drawn)"
  Assigned label: "F"
- Molecule: "CC1Sc2ccc(S(=O)(=O)NCCc3ccc(S(N)(=O)=O)cc3)cc2NC1=O (stereo not drawn)"
  Assigned label: "T"
- Molecule: "Cc1ccc(CN2C(=O)/C(=C3\\SC(N4CCOCC4)=NC3=O)c3cc(Br)ccc32)cc1"
  Assigned label: "F"

query: Take the molecule Cc1ccc(OCc2nnc(NC(=O)OCC(C)C)s2)cc1 and say whether its cell number change is less than 10%.
result: T

query: Take the molecule CCOc1ccc(/C=N/n2c(SC)nnc(C(C)(C)C)c2=O)cc1 and say whether its cell number change is less than 10%.
result: T

query: Take the molecule COc1cc(C(=O)Nc2cccc(-c3nc4ccccc4o3)c2C)cc(OC)c1OC and say whether its cell number change is less than 10%.
result: T

query: Take the molecule COC(=O)CSc1nc(N2CCOCC2)c2c(c1C#N)CC(C)(C)N(C)C2 and say whether its cell number change is less than 10%.
result: F
